- system_name: DLG1_3, Q12959
- Sequence (Q12959 457-571): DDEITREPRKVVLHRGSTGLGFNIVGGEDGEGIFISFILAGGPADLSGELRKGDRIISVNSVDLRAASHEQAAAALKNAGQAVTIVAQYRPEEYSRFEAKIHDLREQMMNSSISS
- assay_text: holdup assay
- Set-up: key: below the threshold = too weak to quantify, mostly under pKd 3.1 to 4
- measurement_setup: plain residues with an end cap or a label only (N-terminal biotin on a linker: ahx)

- binder: "LSDPSVSTVV [GRIN1, Q05586;Q05586-2]"
  pKd: "below the threshold"
- binder: "SDSSGQEYSL [KCTD3, Q9Y597]"
  pKd: "below the threshold"
- binder: "ESLLLGPSNF [SHROOM4, Q9ULL8]"
  pKd: "below the threshold"
- binder: "PSASCAVTAA [PDLIM4, P50479;P50479-2]"
  pKd: "below the threshold"
- binder: "HNAFLSVTTV [PDZRN4, Q6ZMN7]"
  pKd: "below the threshold"
- binder: "GYDWGPATDL [TJP3, O95049]"
  pKd: "below the threshold"
- binder: "NRKREIFSNF [NHERF2, Q15599]"
  pKd: "below the threshold"
- binder: "RRRKRKRTYL [HPV49-L2, P36762]"
  pKd: 3.65
- binder: "RAVEEEESRF [PSCDBP, O60759]"
  pKd: "below the threshold"
- binder: "TVICWPGSLV [LNX2, Q8N448]"
  pKd: 4.32
